Biological target: T1, human factor XIIa (human, UniProt P00748 20-615, biotinylated with Biotin Ester (Zymed); sites not stated)
T1 chain: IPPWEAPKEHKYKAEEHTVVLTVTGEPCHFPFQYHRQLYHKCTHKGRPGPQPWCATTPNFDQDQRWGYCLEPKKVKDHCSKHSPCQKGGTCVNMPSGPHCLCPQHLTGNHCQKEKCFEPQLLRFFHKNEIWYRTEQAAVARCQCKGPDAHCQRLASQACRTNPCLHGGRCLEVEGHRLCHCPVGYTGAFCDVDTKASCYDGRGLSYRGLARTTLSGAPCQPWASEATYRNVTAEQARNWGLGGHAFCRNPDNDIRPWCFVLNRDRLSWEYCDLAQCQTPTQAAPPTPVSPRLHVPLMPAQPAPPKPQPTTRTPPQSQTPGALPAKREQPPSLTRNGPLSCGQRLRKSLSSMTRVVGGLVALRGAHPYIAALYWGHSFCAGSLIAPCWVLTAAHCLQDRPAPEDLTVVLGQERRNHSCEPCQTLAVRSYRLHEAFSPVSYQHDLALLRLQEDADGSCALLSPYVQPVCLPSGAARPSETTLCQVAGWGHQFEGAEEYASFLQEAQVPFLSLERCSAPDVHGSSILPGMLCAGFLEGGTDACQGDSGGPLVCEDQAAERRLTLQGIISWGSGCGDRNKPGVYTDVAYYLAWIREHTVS
Assay: enzyme inhibition
parameter: Ki (nM)
Field format: number, assumed nM, no unit text.

The following binders have reported results that may help.
[[record]]
binder = "TW6139 (protein) EVVREVCSEQAETGPCRAMISRWYFDVTEGKCAPFFYGGCHGNRNNFDTEEYCMAVCGSAI"
recordedvalue = 152

[[record]]
binder = "TW6178 (protein) EVVREVCSEQAETGPCRAMISRWYFDVTEGKCAPFFYGGCGRNRNNFDTEEYCMAVCGSAI"
recordedvalue = 444


Proceed to the following item.
Documented Ki of TW6151 (protein) EVVREVCSEQAETGPCRAMISRWYFDVTEGKCAPFFYGGCEGNRNNFDTEEYCMAVCGSAI : 1160
